target: mTAS1R2-WT/mTAS1R3-I60T (Mus musculus, UniProt Q925D8+Q925I4, I60T); construct: expressed in transfected cells; host or cells: HEK293T-Gα16gust44; assay: Calcium mobilisation assay, HEK293T-Gα16gust44 cells, mouse TAS1R3-I60T variant; type: cell-based; settings: mTAS1R2-WT + mTAS1R3-I60T; maximal signal amplitude; "-": no activation
Sequence (Q925I4 20-843): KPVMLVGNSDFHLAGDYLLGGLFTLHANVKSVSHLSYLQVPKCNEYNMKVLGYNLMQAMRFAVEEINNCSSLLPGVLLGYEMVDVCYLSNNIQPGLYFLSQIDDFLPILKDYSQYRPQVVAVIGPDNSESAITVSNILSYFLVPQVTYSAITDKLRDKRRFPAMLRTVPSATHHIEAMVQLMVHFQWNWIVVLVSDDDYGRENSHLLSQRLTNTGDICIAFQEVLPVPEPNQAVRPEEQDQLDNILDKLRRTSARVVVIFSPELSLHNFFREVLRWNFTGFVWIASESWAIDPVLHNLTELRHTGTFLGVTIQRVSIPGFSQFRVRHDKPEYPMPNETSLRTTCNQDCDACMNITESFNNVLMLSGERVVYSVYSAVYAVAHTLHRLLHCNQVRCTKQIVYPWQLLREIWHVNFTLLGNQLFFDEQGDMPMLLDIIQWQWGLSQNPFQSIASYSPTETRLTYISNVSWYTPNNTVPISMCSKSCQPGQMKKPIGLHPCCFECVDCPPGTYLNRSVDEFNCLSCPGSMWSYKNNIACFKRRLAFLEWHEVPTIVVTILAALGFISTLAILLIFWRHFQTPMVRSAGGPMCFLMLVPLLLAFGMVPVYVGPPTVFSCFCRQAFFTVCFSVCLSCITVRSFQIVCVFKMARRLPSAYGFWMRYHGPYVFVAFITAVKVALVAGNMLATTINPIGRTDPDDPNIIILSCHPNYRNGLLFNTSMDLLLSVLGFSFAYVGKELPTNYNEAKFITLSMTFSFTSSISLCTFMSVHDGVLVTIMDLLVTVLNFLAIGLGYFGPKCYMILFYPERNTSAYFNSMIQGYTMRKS
Sequence (Q925D8 21-858 I60T): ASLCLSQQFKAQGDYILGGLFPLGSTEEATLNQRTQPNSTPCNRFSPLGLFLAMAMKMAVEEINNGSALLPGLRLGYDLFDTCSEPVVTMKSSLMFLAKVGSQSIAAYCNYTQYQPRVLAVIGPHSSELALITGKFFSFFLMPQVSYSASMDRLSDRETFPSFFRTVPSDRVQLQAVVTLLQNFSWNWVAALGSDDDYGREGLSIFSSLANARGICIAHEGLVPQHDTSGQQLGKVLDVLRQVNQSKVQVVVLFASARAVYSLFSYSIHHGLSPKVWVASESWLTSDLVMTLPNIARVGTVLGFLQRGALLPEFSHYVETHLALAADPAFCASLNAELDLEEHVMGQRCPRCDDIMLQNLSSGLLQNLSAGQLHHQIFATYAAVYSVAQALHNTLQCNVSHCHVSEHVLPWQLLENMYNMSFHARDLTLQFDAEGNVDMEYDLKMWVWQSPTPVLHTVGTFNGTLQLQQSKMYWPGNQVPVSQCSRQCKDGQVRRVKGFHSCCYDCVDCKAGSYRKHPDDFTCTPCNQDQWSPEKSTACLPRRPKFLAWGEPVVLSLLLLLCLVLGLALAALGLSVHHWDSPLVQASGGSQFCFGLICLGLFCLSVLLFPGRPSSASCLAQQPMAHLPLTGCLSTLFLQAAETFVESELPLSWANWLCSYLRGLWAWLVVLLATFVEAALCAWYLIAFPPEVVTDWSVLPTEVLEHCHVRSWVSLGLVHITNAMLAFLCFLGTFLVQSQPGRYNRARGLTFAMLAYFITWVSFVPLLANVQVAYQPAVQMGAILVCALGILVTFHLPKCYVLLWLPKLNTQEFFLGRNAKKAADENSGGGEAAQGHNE

| compound | Max ΔF/F0 |
| --- | --- |
| CC1=CC(=O)NS(=O)(=O)O1 | 1.03 ± 0.02 |
| C=C1C[C@@]23CC[C@H]4[C@@](C)(CCC[C@@]4(C)C(=O)O[C@@H]4O[C@H](CO)[C@@H](O)[C@H](O[C@@H]5O[C@H](CO)[C@@H](O)[C@H](O)[C@H]5O)[C@H]4O[C@@H]4O[C@H](CO)[C@@H](O)[C@H](O)[C@H]4O)[C@@H]2CC[C@]1(O[C@@H]1O[C@H](CO)[C@@H](O)[C@H](O[C@@H]2O[C@H](CO)[C@@H](O)[C@H](O)[C@H]2O)[C@H]1O[C@@H]1O[C@H](CO)[C@@H](O)[C@H](O)[C@H]1O)C3 [Rebaudioside M, rebaudioside M] | 0.71 ± 0.01 |
| C[C@H](CC[C@@H](O[C@@H]1O[C@H](CO[C@@H]2O[C@H](CO)[C@@H](O)[C@H](O)[C@H]2O)[C@@H](O)[C@H](O)[C@H]1O[C@@H]1O[C@H](CO)[C@@H](O)[C@H](O)[C@H]1O)C(C)(C)O)[C@H]1CC[C@@]2(C)[C@@H]3CC=C4[C@@H](CC[C@H](O[C@@H]5O[C@H](CO[C@@H]6O[C@H](CO)[C@@H](O)[C@H](O)[C@H]6O)[C@@H](O)[C@H](O)[C@H]5O)C4(C)C)[C@]3(C)[C@H](O)C[C@]12C [Mogroside V, mogroside V] | 0.50 ± 0.03 |
| OC[C@H]1O[C@H](O[C@]2(CCl)O[C@H](CCl)[C@@H](O)[C@@H]2O)[C@H](O)[C@@H](O)[C@H]1Cl | 1.47 ± 0.03 |

---

Target: human TAS1R2-WT/TAS1R3-WT (Homo sapiens, UniProt Q7RTX0+Q8TE23)
Construct: expressed in transfected cells; host or cells: HEK293T-Gα16gust44
Sequence (Q8TE23 20-839): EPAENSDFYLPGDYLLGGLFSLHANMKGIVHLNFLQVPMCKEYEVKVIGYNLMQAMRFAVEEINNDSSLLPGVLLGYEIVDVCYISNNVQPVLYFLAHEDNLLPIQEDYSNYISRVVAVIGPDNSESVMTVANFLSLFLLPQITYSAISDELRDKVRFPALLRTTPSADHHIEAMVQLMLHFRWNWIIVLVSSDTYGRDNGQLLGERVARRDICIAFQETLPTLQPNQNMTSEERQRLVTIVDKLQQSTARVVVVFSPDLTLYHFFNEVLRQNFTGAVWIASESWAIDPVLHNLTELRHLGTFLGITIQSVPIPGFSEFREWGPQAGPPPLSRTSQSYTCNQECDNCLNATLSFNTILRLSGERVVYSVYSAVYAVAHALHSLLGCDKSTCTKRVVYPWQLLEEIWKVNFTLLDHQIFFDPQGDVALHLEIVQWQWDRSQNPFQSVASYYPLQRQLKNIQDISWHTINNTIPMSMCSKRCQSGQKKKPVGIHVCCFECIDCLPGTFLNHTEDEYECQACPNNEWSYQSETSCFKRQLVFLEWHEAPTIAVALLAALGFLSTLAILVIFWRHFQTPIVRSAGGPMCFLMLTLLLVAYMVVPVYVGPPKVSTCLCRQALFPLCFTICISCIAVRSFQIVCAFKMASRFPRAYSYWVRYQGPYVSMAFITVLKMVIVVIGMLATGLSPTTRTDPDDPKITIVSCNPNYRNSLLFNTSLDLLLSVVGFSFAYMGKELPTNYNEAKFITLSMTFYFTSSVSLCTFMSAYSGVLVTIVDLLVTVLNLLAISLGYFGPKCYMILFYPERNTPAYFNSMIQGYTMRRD
Sequence (Q7RTX0 21-852): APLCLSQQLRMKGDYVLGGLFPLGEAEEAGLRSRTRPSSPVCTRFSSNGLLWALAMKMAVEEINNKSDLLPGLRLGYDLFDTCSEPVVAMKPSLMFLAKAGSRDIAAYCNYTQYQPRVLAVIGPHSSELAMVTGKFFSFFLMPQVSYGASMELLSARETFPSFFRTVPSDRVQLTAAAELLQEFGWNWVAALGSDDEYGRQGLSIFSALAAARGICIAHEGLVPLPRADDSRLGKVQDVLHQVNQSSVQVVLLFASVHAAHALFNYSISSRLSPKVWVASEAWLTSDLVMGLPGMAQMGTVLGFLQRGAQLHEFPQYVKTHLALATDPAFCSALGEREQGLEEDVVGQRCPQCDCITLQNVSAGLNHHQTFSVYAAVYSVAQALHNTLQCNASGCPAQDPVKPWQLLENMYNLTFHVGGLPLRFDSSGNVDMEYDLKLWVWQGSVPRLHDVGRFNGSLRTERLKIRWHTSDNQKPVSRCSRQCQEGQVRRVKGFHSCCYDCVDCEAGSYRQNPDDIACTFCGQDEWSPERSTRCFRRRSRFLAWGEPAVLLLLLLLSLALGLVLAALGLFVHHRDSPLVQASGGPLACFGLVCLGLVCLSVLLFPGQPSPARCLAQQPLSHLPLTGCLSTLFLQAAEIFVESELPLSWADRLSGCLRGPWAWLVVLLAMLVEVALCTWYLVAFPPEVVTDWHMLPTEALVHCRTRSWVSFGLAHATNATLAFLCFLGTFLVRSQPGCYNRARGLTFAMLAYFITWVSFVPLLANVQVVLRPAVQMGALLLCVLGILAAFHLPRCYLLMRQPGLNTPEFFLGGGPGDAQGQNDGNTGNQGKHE
Experiment: Calcium mobilisation assay, HEK293T-Gα16gust44 cells, human sweet taste receptor WT
Assay type: cell-based
Settings: TAS1R2-WT/TAS1R3-WT; maximal signal amplitude
// Not fulfilled strictly below 0.7 in Max ΔF/F0; Fulfilled otherwise

| molecule | discrete_label |
| --- | --- |
| CC1=CC(=O)NS(=O)(=O)O1 | Not fulfilled |
| OC[C@H]1O[C@H](O[C@]2(CCl)O[C@H](CCl)[C@@H](O)[C@@H]2O)[C@H](O)[C@@H](O)[C@H]1Cl | Not fulfilled |
| C[C@H](CC[C@@H](O[C@@H]1O[C@H](CO[C@@H]2O[C@H](CO)[C@@H](O)[C@H](O)[C@H]2O)[C@@H](O)[C@H](O)[C@H]1O[C@@H]1O[C@H](CO)[C@@H](O)[C@H](O)[C@H]1O)C(C)(C)O)[C@H]1CC[C@@]2(C)[C@@H]3CC=C4[C@@H](CC[C@H](O[C@@H]5O[C@H](CO[C@@H]6O[C@H](CO)[C@@H](O)[C@H](O)[C@H]6O)[C@@H](O)[C@H](O)[C@H]5O)C4(C)C)[C@]3(C)[C@H](O)C[C@]12C [Mogroside V, mogroside V] | Fulfilled |
| COC(=O)[C@H](Cc1ccccc1)NC(=O)[C@H](CC(=O)O)NCCC(C)(C)C | Not fulfilled |
| COc1ccc(CCC(=O)c2c(O)cc(O[C@@H]3O[C@H](CO)[C@@H](O)[C@H](O)[C@H]3O[C@@H]3O[C@@H](C)[C@H](O)[C@@H](O)[C@H]3O)cc2O)cc1O [NHDC, neohesperidin dihydrochalcone] | Fulfilled |
| C=C(C)[C@@H]1CC=C(/C=N/O)CC1 | Fulfilled |

---

Biological target: human TAS1R2-K689Q/TAS1R3-WT (Homo sapiens, UniProt Q7RTX0+Q8TE23, K689Q)
Construct: expressed in transfected cells; host or cells: HEK293T-Gα16gust44
Test: Calcium mobilisation assay, TAS1R2 variant K689Q with TAS1R3-WT
Assay type: cell-based
Details: maximal signal amplitude, "-": no activation
Excerpt: The coding sequences for TAS1R2 and TAS1R3 were commercially synthesised, and the human codon was optimised for expression in human cells. […] The HEK293T cells were kindly provided by Jay P. Slack (Givaudan Flavors Corporation; Cincinnati, OH, USA). […] The Ca^2+ changes were expressed as fractional changes in fluorescent light intensity: ΔF/F = (F − F0)/F0, where F was the fluorescent light intensity at each point, and F0 was the value of emitted fluorescent light prior to stimulus application. […]
Max ΔF/F0 for assorted molecules

| molecule | tested_target | Max ΔF/F0 |
| --- | --- | --- |
| C=C(C)[C@@H]1CC=C(/C=N/O)CC1 [Perillartine, perillartine] | human TAS1R2-K689Q/TAS1R3-WT (Homo sapiens, UniProt Q7RTX0+Q8TE23, K689Q) | 1.36 |
| COC(=O)[C@H](Cc1ccccc1)NC(=O)[C@H](CC(=O)O)NCCC(C)(C)C [Neotame] | human TAS1R2-K689Q/TAS1R3-WT (Homo sapiens, UniProt Q7RTX0+Q8TE23, K689Q) | 0.12 |
| CC1=CC(=O)NS(=O)(=O)O1 [Acesulfame K, acesulfame K] | human TAS1R2-K689Q/TAS1R3-WT (Homo sapiens, UniProt Q7RTX0+Q8TE23, K689Q) | 0.02 |

Source of measurements: paper PMC11945486
